Just for reference, paper PMC8292346 is where these values come from.

assay: Pharmacokinetic analysis of Nec-1f in mice (tissue PK); assay type: in vivo, C57BL/6 mice; conditions: male, C57BL/6, mouse, heart, intraperitoneal, 2 mg/kg, heart; sample collection 1440 min; individual mice; read-out: concentration in heart
Parameter: concentration at 1440 min (ng/mL)
Numbers only, in ng/mL.

Given CN1C(=O)C(Cc2c[nH]c3c(Cl)cccc23)NC1=S (stereo not shown) , state its recorded concentration at 1440 min.
0

* * *

assay: Pharmacokinetic analysis of Nec-1f in mice (tissue PK); format: in vivo, C57BL/6 mice; conditions: male, C57BL/6, mouse, plasma, intraperitoneal, 2 mg/kg, plasma; sample collection 360 min; individual mice; read-out: concentration in plasma
Parameter: concentration at 360 min (ng/mL)
Numbers only, in ng/mL.

Give the measured concentration at 360 min of CN1C(=O)C(Cc2c[nH]c3c(Cl)cccc23)NC1=S (stereo not shown) [Nec-1f] .
0

* * *

experiment: Pharmacokinetic analysis of Nec-1f in mice (tissue PK); type: in vivo, C57BL/6 mice; conditions: male, C57BL/6, mouse, liver, intraperitoneal, liver; sample collection 15 min; individual mice; read-out: concentration in liver
Parameter: concentration at 15 min (ng/mL)
Numbers only, in ng/mL.

Could you tell me which concentration at 15 min is on file for CN1C(=O)C(Cc2c[nH]c3c(Cl)cccc23)NC1=S (stereo not shown) ?
334

* * *

experiment: Pharmacokinetic analysis of Nec-1f in mice (tissue PK); format: in vivo, C57BL/6 mice; conditions: male, C57BL/6, mouse, pancreas, intraperitoneal, pancreas; sample collection 5 min; individual mice; read-out: concentration in pancreas
Parameter: concentration at 5 min (ng/mL)
Answers are plain numbers, in ng/mL.

Return reported concentration at 5 min; argument: CN1C(=O)C(Cc2c[nH]c3c(Cl)cccc23)NC1=S (stereo not shown) [Nec-1f]
8950

* * *

experiment: Pharmacokinetic analysis of Nec-1f in mice (tissue PK); type: in vivo, C57BL/6 mice; conditions: male, C57BL/6, mouse, heart, intraperitoneal, heart; sample collection 0 min; individual mice; read-out: concentration in heart
Parameter: concentration at 0 min
Respond with the figure and its unit, in that order.

Item CN1C(=O)C(Cc2c[nH]c3c(Cl)cccc23)NC1=S (stereo not shown) [Nec-1f] has what recorded concentration at 0 min?
0 ng/mL

* * *

assay: Pharmacokinetic analysis of Nec-1f in mice (tissue PK); assay type: in vivo, C57BL/6 mice; conditions: male, C57BL/6, mouse, brain, intraperitoneal, 2 mg/ml, brain; sample collection 5 min; individual mice; read-out: concentration in brain
Parameter: concentration at 5 min (ng/mL)
Answers are plain numbers, in ng/mL.

Record request: concentration at 5 min value, item CN1C(=O)C(Cc2c[nH]c3c(Cl)cccc23)NC1=S (stereo not shown)
11

* * *

assay: Pharmacokinetic analysis of Nec-1f in mice (tissue PK); format: in vivo, C57BL/6 mice; conditions: male, C57BL/6, mouse, brain, intraperitoneal, 2 mg/ml, brain; sample collection 0 min; individual mice; read-out: concentration in brain
Parameter: concentration at 0 min (ng/mL)
Numbers only, in ng/mL.

What does the record list as concentration at 0 min for CN1C(=O)C(Cc2c[nH]c3c(Cl)cccc23)NC1=S (stereo not shown) ?
0

* * *

experiment: Pharmacokinetic analysis of Nec-1f in mice (tissue PK); type: in vivo, C57BL/6 mice; conditions: male, C57BL/6, mouse, whole blood, intraperitoneal, 2 mg/kg, blood; sample collection 360 min; individual mice; read-out: concentration in blood
Parameter: concentration at 360 min (ng/mL)
Give bare numbers, in ng/mL.

// query concentration at 360 min value for entry CN1C(=O)C(Cc2c[nH]c3c(Cl)cccc23)NC1=S (stereo not shown) [Nec-1f]
0

* * *

assay: Pharmacokinetic analysis of Nec-1f in mice (tissue PK); format: in vivo, C57BL/6 mice; conditions: male, C57BL/6, mouse, kidney, intraperitoneal, 2 mg/ml, kidney; sample collection 120 min; individual mice; read-out: concentration in kidney
Parameter: concentration at 120 min (ng/mL)
Answers are plain numbers, in ng/mL.

What does the data say about its concentration at 120 min? Entry: CN1C(=O)C(Cc2c[nH]c3c(Cl)cccc23)NC1=S (stereo not shown) [Nec-1f]
0

* * *

assay: Pharmacokinetic analysis of Nec-1f in mice (tissue PK); type: in vivo, C57BL/6 mice; settings: male, C57BL/6, mouse, lung, intraperitoneal, lung; sample collection 1440 min; individual mice; read-out: concentration in lung
Parameter: concentration at 1440 min (ng/mL)
Give bare numbers, in ng/mL.

Recorded concentration at 1440 min of CN1C(=O)C(Cc2c[nH]c3c(Cl)cccc23)NC1=S (stereo not shown) [Nec-1f] , please.
0

* * *

experiment: Pharmacokinetic analysis of Nec-1f in mice (tissue PK); type: in vivo, C57BL/6 mice; details: male, C57BL/6, mouse, liver, intraperitoneal, liver; sample collection 0 min; individual mice; read-out: concentration in liver
Parameter: concentration at 0 min (ng/mL)
One number for each entry, in ng/mL.

Given CN1C(=O)C(Cc2c[nH]c3c(Cl)cccc23)NC1=S (stereo not shown) [Nec-1f] , state its recorded concentration at 0 min.
0

* * *

experiment: Pharmacokinetic analysis of Nec-1f in mice (tissue PK); type: in vivo, C57BL/6 mice; conditions: male, C57BL/6, mouse, plasma, intraperitoneal, 2 mg/ml, plasma; sample collection 5 min; individual mice; read-out: concentration in plasma
Parameter: concentration at 5 min (ng/mL)
Give bare numbers, in ng/mL.

Quick one: concentration at 5 min for CN1C(=O)C(Cc2c[nH]c3c(Cl)cccc23)NC1=S (stereo not shown) ?
0

* * *

assay: Pharmacokinetic analysis of Nec-1f in mice (tissue PK); type: in vivo, C57BL/6 mice; settings: male, C57BL/6, mouse, liver, intraperitoneal, liver; sample collection 120 min; individual mice; read-out: concentration in liver
Parameter: concentration at 120 min (ng/mL)
One number for each entry, in ng/mL.

Could you tell me which concentration at 120 min is on file for CN1C(=O)C(Cc2c[nH]c3c(Cl)cccc23)NC1=S (stereo not shown) ?
0

* * *

assay: Pharmacokinetic analysis of Nec-1f in mice (tissue PK); type: in vivo, C57BL/6 mice; conditions: male, C57BL/6, mouse, brain, intraperitoneal, 2 mg/kg, brain; sample collection 240 min; individual mice; read-out: concentration in brain
Parameter: concentration at 240 min (ng/mL)
One number for each entry, in ng/mL.

Could you share which concentration at 240 min value was measured for CN1C(=O)C(Cc2c[nH]c3c(Cl)cccc23)NC1=S (stereo not shown) [Nec-1f] ?
0

* * *

assay: Pharmacokinetic analysis of Nec-1f in mice (tissue PK); assay type: in vivo, C57BL/6 mice; settings: male, C57BL/6, mouse, whole blood, intraperitoneal, 2 mg/kg, blood; sample collection 480 min; individual mice; read-out: concentration in blood
Parameter: concentration at 480 min
Could you write the number and then its unit?

Which measured concentration at 480 min value corresponds to CN1C(=O)C(Cc2c[nH]c3c(Cl)cccc23)NC1=S (stereo not shown) [Nec-1f] ?
0 ng/mL

* * *

test: Pharmacokinetic analysis of Nec-1f in mice (tissue PK); type: in vivo, C57BL/6 mice; details: male, C57BL/6, mouse, heart, intraperitoneal, 2 mg/kg, heart; sample collection 240 min; individual mice; read-out: concentration in heart
Parameter: concentration at 240 min (ng/mL)
Give bare numbers, in ng/mL.

Record request: concentration at 240 min value, item CN1C(=O)C(Cc2c[nH]c3c(Cl)cccc23)NC1=S (stereo not shown)
0

* * *

assay: Pharmacokinetic analysis of Nec-1f in mice (tissue PK); format: in vivo, C57BL/6 mice; conditions: male, C57BL/6, mouse, lung, intraperitoneal, lung; sample collection 0 min; individual mice; read-out: concentration in lung
Parameter: concentration at 0 min (ng/mL)
Give bare numbers, in ng/mL.

Sample CN1C(=O)C(Cc2c[nH]c3c(Cl)cccc23)NC1=S (stereo not shown) — what was its concentration at 0 min?
0

* * *

assay: Pharmacokinetic analysis of Nec-1f in mice (tissue PK); assay type: in vivo, C57BL/6 mice; settings: male, C57BL/6, mouse, kidney, ip; mice, single i.p. injection 2 mg/kg
Parameter: half-life (h)
One number for each entry, in h.

Any idea what half-life was measured for CN1C(=O)C(Cc2c[nH]c3c(Cl)cccc23)NC1=S (stereo not shown) ?
3.52

* * *

experiment: Pharmacokinetic analysis of Nec-1f in mice (tissue PK); assay type: in vivo, C57BL/6 mice; details: male, C57BL/6, mouse, lung, intraperitoneal, 2 mg/kg, lung; sample collection 360 min; individual mice; read-out: concentration in lung
Parameter: concentration at 360 min (ng/mL)
Answers are plain numbers, in ng/mL.

Quick one: concentration at 360 min of CN1C(=O)C(Cc2c[nH]c3c(Cl)cccc23)NC1=S (stereo not shown) ?
0

* * *

assay: Pharmacokinetic analysis of Nec-1f in mice (tissue PK); format: in vivo, C57BL/6 mice; conditions: male, C57BL/6, mouse, whole blood, intraperitoneal, 2 mg/ml, blood; sample collection 60 min; individual mice; read-out: concentration in blood
Parameter: concentration at 60 min
# do not omit the unit; it follows the number

Please report the recorded concentration at 60 min for CN1C(=O)C(Cc2c[nH]c3c(Cl)cccc23)NC1=S (stereo not shown) .
0 ng/mL
